# measurement.target: T1, human transferrin receptor (hTfR) (human, UniProt P02786 89-760)
# T1 construct: Recombinant hTfR; at pH 7.4 captured on the chip by an anti-His tag antibody, at pH 6.0 immobilized on an NTA chip, so it carries a His tag; also called human TfR; TfR1
# T1 sequence (P02786 89-760 limits assumed): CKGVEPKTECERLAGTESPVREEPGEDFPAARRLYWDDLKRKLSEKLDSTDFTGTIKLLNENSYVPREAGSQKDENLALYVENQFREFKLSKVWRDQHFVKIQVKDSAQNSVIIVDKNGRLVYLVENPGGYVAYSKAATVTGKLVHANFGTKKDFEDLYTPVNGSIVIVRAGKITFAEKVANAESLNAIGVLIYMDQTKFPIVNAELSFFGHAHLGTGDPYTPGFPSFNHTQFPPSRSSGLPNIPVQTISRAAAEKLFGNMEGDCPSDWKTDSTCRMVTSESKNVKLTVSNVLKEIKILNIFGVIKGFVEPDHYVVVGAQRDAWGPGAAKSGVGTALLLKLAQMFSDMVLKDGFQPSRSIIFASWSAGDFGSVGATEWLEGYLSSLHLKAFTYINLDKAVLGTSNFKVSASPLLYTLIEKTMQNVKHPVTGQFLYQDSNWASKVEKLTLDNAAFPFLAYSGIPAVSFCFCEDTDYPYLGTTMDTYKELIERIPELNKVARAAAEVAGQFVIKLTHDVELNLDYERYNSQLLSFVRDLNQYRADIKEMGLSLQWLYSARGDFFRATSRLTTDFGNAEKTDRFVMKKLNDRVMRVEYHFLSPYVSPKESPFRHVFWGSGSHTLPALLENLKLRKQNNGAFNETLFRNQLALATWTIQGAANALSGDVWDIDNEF
# test.summary: SPR (Biacore T200), pH 7.4, hTfR on chip
Bridge positions count the residues as written; N and C are the ends. Square brackets hold non-standard residues; d marks the D form. Ends that are not written are not given here. NMePhe(4-COOH) = CN[C@@H](Cc1ccc(C(=O)O)cc1)C(=O)O; NMePhe(3-Cl) = CN[C@@H](Cc1cccc(Cl)c1)C(=O)O; 3Pal(6-NH2) = Nc1ccc(C[C@H](N)C(=O)O)cn1; NMeW = CN[C@@H](Cc1c[nH]c2ccccc12)C(=O)O; NMeY = CN[C@@H](Cc1ccc(O)cc1)C(=O)O; Nva(3-Et) = CCC(CC)[C@H](N)C(=O)O; NMeF = CN[C@@H](Cc1ccccc1)C(=O)O
assay.metric: pKd
Reminder that pKd is minus the log10 of a molar concentration.

Observe how each entry below is paired with its result.
binder: AVXVWNYYIIXRYXC (as printed: A-V-MeF-V-W-N-Y-Y-I-I-E(PEG8Me)-R-Y-MeY-C; linker G-KN3; cyclic (ClAc-Ala1 thioether to Cys15)) [894_3435]
assay.metric: pKd
reported.measurement: 7.94

binder: {CH2CO}-AV[NMeF]V[NMeW]NYY[Nva(3-Et)]SKRY[NMeY]C (thioether N-15; not fully specified (C-terminus)) [894_0611]
assay.metric: pKd
reported.measurement: 7.52

binder: {CH2CO}-AV[NMePhe(3-Cl)]V[NMeW]N[3Pal(6-NH2)]YI[code s]KRY[NMeY]C (thioether N-15; also: linker PEG4c attached, place not given here, Position 10 is printed as lower-case 's') [894_0620]
assay.metric: pKd
reported.measurement: 8.30

Request: State its pKd: {CH2CO}-AV[NMeF]V[NMeW]N[3Pal(6-NH2)]YIIKRY[NMePhe(4-COOH)]C (thioether N-15; not fully specified (C-terminus)) [894_0604]
Response: 8.45

Request: Complete the entry with pKd for AVXVWNYYIIRRXXC (as printed: A-V-MeF-V-W-N-Y-Y-I-I-R-R-F3COO(PEG8Me)-MeY-C; linker G-KN3; cyclic (ClAc-Ala1 thioether to Cys15)) [894_3436]
Response: 8.70

Request: Using the record for AVXVXNYYIIKRYXC (as printed: A-V-Me3Py-V-MeW-N-Y-Y-I-I-K-R-Y-MeY-C; linker PEG4c; cyclic (ClAc-Ala1 thioether to Cys15)) [894_0615] , state its measured pKd.
Response: 7.78

Request: Specify measured pKd for AVXVWNXYIIKRYXC (not fully specified; as printed: A-V-MeF-V-W-N-3Py6NH2-Y-I-I-K-R-Y-MeY-C; linker PEG4c; cyclic (ClAc-Ala1 thioether to Cys15)) [894_0601] .
Response: 8.28

Request: Note pKd for the binder shown: AVXVXNYYXIKRYXC (as printed: A-V-Me3Py-V-MeW-N-Y-Y-Eva-I-K-R-Y-MeY-C; linker PEG4c; cyclic (ClAc-Ala1 thioether to Cys15)) [894_0616]
Response: 7.38

Request: Quote pKd reported for {CH2CO}-AV[NMePhe(3-Cl)]V[NMeW]NYY[Nva(3-Et)]SKRY[NMeY]C (thioether N-15; not fully specified (C-terminus)) [894_0612] please.
Response: 8.25
